# ASSAY REMARKS: chemical genetic growth profiling, strain panel (AID 1159580);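 further: tested at 20 µM; growth read once vehicle control cultures reached saturation at 30 °C; lower values mean less growth of the strain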
# SETUP CONDITIONS: S. cerevisiae deletion strains, growth OD, locus YER123W, strain YCK3
Among all 5,500 compounds or so, about 2,000 (36%) were called active. Another 18% or so got no clear call; they are omitted. No stated cut-off is given here; in the data, active means normalized growth mostly below about 0.91 (no sharp cut-off); inconclusive means no clear call, values can overlap the other calls; inactive means mostly above about 0.92. The list shows a part of the results.
Outcome codes: active, inactive

| MOLECULE | CATEGORY LABEL |
| --- | --- |
| COc1ccc(C2CC(c3ccc(C)cc3C)=NN2C(C)=O)cc1 (stereo not given) | inactive |
| Cc1ccc2nc(-c3ccc([N+](=O)[O-])o3)oc(=O)c2c1 | active |
| O=C(Nc1cc2c(s1)-c1cc(Cl)ccc1SC2)Oc1ccccc1 | inactive |
| CN1c2ccccc2C(C)(C)C12C=Cc1cc(O)ccc1O2 (stereo not given) | inactive |
| CCOC(=O)c1cnc2c(c(C)nn2C)c1Sc1nnc(SC)s1 | active |
